test: thallium flux activation in parental CHO cells, counter-screen for KCNQ1 potentiator project (AID 493006); settings: parental CHO-K1 cells, FluxOR thallium flux, at 10 µM; active compounds read high;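 as to activation: fluorescence ratio of max minus min over baseline after K+ and Tl+ depolarization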
Active and inactive are the calls of the source.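 The calls were made as follows: active = duplicate-averaged activation above buffer control mean plus 5 SD of those controls; inactive = the rest.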
reported.endpoint: activation

[[record]]
compound = "Cc1ccc(OCC(=O)NNC(=S)NC(=O)C2CCCCC2)c(C)c1"
reported_endpoint = "activation"
experimental_result = "inactive"

[[record]]
compound = "CCc1nnc(NC(=O)CSc2n[nH]c(-c3ccccc3O)n2)s1"
reported_endpoint = "activation"
experimental_result = "inactive"

[[record]]
compound = "Cc1ccc(C2C(/C=C3/SC(=S)NC3=O)=C(c3cccs3)Oc3ccccc32)cc1 (configuration not stated)"
reported_endpoint = "activation"
experimental_result = "142% (active)"

[[record]]
compound = "Cc1ccc(-c2nc(=S)c3c(n2Cc2ccco2)CC(C)(C)OC3)cc1"
reported_endpoint = "activation"
experimental_result = "inactive"

[[record]]
compound = "Cc1cccc(-c2nnc(NC(=O)c3ccc(Cl)cc3)o2)c1"
reported_endpoint = "activation"
experimental_result = "inactive"

[[record]]
compound = "O=C(c1ccccn1)c1ncc(C(F)(F)F)cc1Cl"
reported_endpoint = "activation"
experimental_result = "inactive"

[[record]]
compound = "CC(C)n1c(O)c(N=NC(=O)C2COc3ccccc3O2)c2ccccc21 (configuration not stated)"
reported_endpoint = "activation"
experimental_result = "234% (active)"

[[record]]
compound = "COc1ccccc1NC(=O)C(=O)NNC(=O)c1ccco1"
reported_endpoint = "activation"
experimental_result = "240% (active)"


activation recorded for this compound, O=C(c1ccccc1[N+](=O)[O-])N1CCN(c2ccc(N3CCOCC3)nn2)CC1 , is inactive

Briefly, activation measured for S=C(N/N=C/c1cccc2ccccc12)Nc1cccc(Cl)c1 : inactive

activation measured on NC(=O)c1nsc(C(=O)N(CC(=O)NC2CCCCC2)c2ccc(Cl)cc2)c1N = inactive

Lab book: activation of CCN(c1ccccc1)S(=O)(=O)c1ccc(NC(=S)NC(=O)c2ccc(Br)o2)cc1 noted as inactive

Reported activation of c1ccc2c(c1)CSc1sccc1C2=C1CCNCC1 : inactive

The reported activation of the compound O=C(O)c1ccc2c(c1)C(=O)N(Cc1ccccc1)C2=O was inactive

Memo: Fc1cccc2sc(Nc3nnc(-c4ccco4)o3)nc12 , reported activation: 354% (active)

Documented activation of COc1ccc(-c2nnc(Nc3nc4c(OC)cccc4s3)o2)cc1 : 468% (active)

---

molecular target: Potassium voltage-gated channel subfamily KQT member 2 (Rattus norvegicus) (UniProt O88943); assay: rat KCNQ2 channel potentiation, selectivity assay for KCNQ1 potentiator project, KCNQ2-CHO-K1 cells (AID 493009); conditions: FluxOR thallium flux fluorescence, at 10 µM, scaled: buffer 0, activator control 100;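 also: assay conditions were tuned for KCNQ1 rather than KCNQ2 modulators; signal is max minus min fluorescence divided by baseline after thallium stimulus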
Sequence (O88943 whole entry, looked up): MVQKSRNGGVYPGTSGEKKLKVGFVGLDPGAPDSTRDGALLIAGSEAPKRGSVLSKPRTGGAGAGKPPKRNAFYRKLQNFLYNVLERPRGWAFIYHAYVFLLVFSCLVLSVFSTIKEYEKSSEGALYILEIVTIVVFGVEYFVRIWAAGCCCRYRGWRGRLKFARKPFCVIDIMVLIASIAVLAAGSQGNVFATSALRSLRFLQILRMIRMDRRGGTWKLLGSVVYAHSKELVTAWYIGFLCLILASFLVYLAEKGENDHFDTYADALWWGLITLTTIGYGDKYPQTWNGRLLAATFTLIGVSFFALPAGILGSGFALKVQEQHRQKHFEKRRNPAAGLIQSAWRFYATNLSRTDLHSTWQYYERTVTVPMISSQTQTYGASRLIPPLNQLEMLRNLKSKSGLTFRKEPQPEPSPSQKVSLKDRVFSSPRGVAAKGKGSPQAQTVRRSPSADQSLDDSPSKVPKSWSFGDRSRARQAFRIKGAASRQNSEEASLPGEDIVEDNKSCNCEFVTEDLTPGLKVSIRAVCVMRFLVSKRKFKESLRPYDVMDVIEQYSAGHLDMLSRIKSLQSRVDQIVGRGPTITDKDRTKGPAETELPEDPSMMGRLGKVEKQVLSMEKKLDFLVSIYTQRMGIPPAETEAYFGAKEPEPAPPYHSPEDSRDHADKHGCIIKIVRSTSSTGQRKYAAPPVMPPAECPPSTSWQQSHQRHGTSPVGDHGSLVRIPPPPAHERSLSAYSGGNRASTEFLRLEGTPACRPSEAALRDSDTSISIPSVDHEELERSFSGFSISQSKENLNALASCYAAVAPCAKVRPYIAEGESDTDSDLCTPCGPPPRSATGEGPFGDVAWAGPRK
Calls of active or inactive are those of the source.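 Rule for the calls: active = mean duplicate potentiation above the buffer control mean plus 5 SD of buffer wells; inactive = the rest.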
Respond with a class label; see active, inactive

Past entries and their recorded results:
[[record]]
compound = "COc1ccccc1OCCCc1c(C)n[nH]c1C"
group_label = "inactive"

[[record]]
compound = "S=c1nn[nH]n1C12CC3CC(CC(C3)C1)C2"
group_label = "active"

[[record]]
compound = "CN(C1CCCCC1)S(=O)(=O)c1ccc(NC(=S)NC(=O)c2cccs2)cc1"
group_label = "active"

[[record]]
compound = "CCOC(=O)c1ccc(N2C(=O)C3ON(c4ccccc4)C(c4ccco4)C3C2=O)cc1 (centres undefined)"
group_label = "inactive"

[[record]]
compound = "CCN(CC)CCn1c(OC)cc(=O)[nH]c1=O"
group_label = "inactive"

[[record]]
compound = "COc1cc2c(cc1OC)C(C)N(C(=S)NC(=O)c1ccccc1)CC2 (centres undefined)"
group_label = "inactive"


Task: Call for entry O=C(NN=C1c2ccccc2-c2ccccc21)c1cccc(Br)c1 :
Result: active

Task: Could you kindly confirm the outcome this assay logged for COc1ccc(N2CCN(CC(=O)Nc3nc(C)cs3)CC2)cc1 ?
Result: inactive

Task: Each compound tested received a call. Report the one for CCOC(=O)c1ccccc1N1C(=O)CSC1=S .
Result: inactive

Task: Answer briefly: the call reported for CCN(CC)c1ccc(NC(=S)NC(=O)c2ccco2)cc1 in this assay.
Result: active

Task: Please indicate how the test categorized O=C(Nc1nc(-c2cc(F)ccc2F)cs1)c1ccccn1 .
Result: inactive

Task: Returns: the outcome recorded for O=C(c1cc(COc2ccc3ncccc3c2)on1)N1CCCC(O)C1 (centres undefined) in this assay.
Result: inactive

Task: Outcome? COc1ccc([N+](=O)[O-])cc1NC(=O)c1cccnc1
Result: inactive

Task: Field: outcome | Entry: CCC(Oc1ccc(Cl)cc1)C(=O)N1CC(=O)Nc2ccccc21 (centres undefined)
Result: inactive

Task: Called result for Cc1cc(C)cc(C(=O)OCC(=O)NCC(F)(F)F)c1
Result: inactive

Task: How did this test come out for O=C(NCc1cccc(Cl)c1)c1cccc(OC2CCN(C(=O)C3CC3)CC2)c1 ?
Result: inactive

Task: Fill in: this test's call for CC(Sc1n[nH]c(N)n1)C(=O)NC1CCCCC1C (centres undefined) is ___
Result: active

Task: What classification did Cc1ccc(C2C(/C=C3/SC(=S)NC3=O)=C(c3cccs3)Oc3ccccc32)cc1 (centres undefined) end up with in this test?
Result: inactive

Task: Record lookup: outcome of this test for COc1ccc(OC)c(S(=O)(=O)CC(O)CS(=O)(=O)c2ccccc2)c1 (centres undefined) ?
Result: inactive

Task: Which outcome was assigned to S=c1nc(SCc2ccccc2)[nH]c2ccccc12 in this test?
Result: active

Task: Short answer needed: outcome of this test for CC(CCc1ccccc1)NC(=O)COc1cc(F)ccc1[N+](=O)[O-] (centres undefined) ?
Result: inactive

Task: Tell me the recorded outcome of this test for CC(c1ccccc1C(O)(c1ccccc1)c1ccccc1)N(C)C (centres undefined) .
Result: inactive

Task: So what was the verdict on CCCCN(CCCC)c1cn[nH]c(=O)c1Cl in this test?
Result: inactive

Task: Per the records of this test, what outcome belongs to COc1ccc(-c2csc(NC(=S)NC(=O)c3cccs3)n2)cc1Br ?
Result: inactive
